# Tested on: HT29 colon
# Measurement Protocol: NCI-60 one-dose screen, 48 h (100 = growth as untreated, 0 = no growth, -100 = all killed)
# Condition: 10 µM unless noted
This is part of a sample that, as a whole, favours compounds with a hit. Of some 83,000 tested, about 20% had one in any assay.
Readout Type: growth (%)
Report the value in % with no unit label.

>>> readout_value("Cc1ccc2nc(-c3ccc(C(=O)N/N=C/c4ccc([N+](=O)[O-])cc4)cc3)[nH]c2c1")
102
>>> readout_value("COC1/C=C/OC2(C)Oc3c(C)c(O)c4c(O)c(c(/C=N/N(c5ccccc5)c5ccccc5)c(O)c4c3C2=O)NC(=O)C(C)=C/C=C/C(C)C(O)C(C)C(O)C(C)C(OC(C)=O)C1C (stereo not drawn)")
45.5
>>> readout_value("O=C1Nc2ccccc2/C1=N/N1C(=O)CN(CCCl)C1=O")
99.1

O=C1NC(=O)C(c2coc3cc(Br)ccc23)=C1c1c[nH]c2ccccc12 yielded growth of 20.6

Cc1ncc(C(=O)Nc2ccc(CN3CCN(C)CC3)c(C(F)(F)F)c2)cc1C#Cc1cnc(N)c2ccc(C#N)cc12 yielded growth of -6.14

CC1(C)CC[C@]23CC[C@]4(C)[C@H](CC[C@@H]5[C@@]6(C)CCNCC(C)(C)[C@@H]6CC[C@]54C)[C@H]2[C@H]1OC3 yielded growth of 18.6

Cc1ccc(-c2nc(SCC(=O)N3CCN(c4cc5c(cc4F)c(=O)c(C(=O)O)cn5C4CC4)CC3)nc(Cl)c2C#N)cc1 yielded growth of 103

CCOC(=O)c1[nH]cc2c1CCc1sc(Nc3ccccn3)nc1-2 yielded growth of 77

###

# Tested on: UACC-257 melanoma
# Measurement Protocol: NCI-60 one-dose screen, 48 h (100 = growth as untreated, 0 = no growth, -100 = all killed)
# Condition: 10 µM unless noted
This is part of a sample that, as a whole, favours compounds with a hit. Of some 83,000 tested, about 20% had one in any assay.
Rule: growth of 50% or more gives condition met; anything lower gives condition not met.

>>> discrete_label("O=C(O)c1cn(C2CC2)c2cc(N3CCN(C(=O)N4CCOCC4)CC3)c(F)cc2c1=O")
"condition met"
>>> discrete_label("COc1cc(/C=C/C(=O)c2cccc(-n3cc(-c4ccc(Cl)cc4)[nH]c3=O)c2)ccc1O")
"condition met"

Can COC(=O)/C=C1/SC(=Nc2ccc(F)cc2)N(CCc2c[nH]c3ccc(O)cc23)C1=O be said to have growth at or above 50%?
condition not met

Can CCCCCCCCn1ccc2cc(NC(=O)CN=[N+]=[N-])ccc21 be said to have growth at or above 50%?
condition met

###

# Tested on: UACC-62 melanoma
# Measurement Protocol: NCI-60 one-dose screen, 48 h (100 = growth as untreated, 0 = no growth, -100 = all killed)
# Condition: 10 µM unless noted
Compounds without any hit were thinned out: in the full panel of roughly 83,000, 20% have a hit.
// values below are reported growth
Report the value in % with no unit label.

Worked cases, growth given:
>>> readout_value("O=[N+]([O-])c1c(O)c(Cl)cc(Cl)c1Cl")
100
>>> readout_value("S=c1ccnc[nH]1")
102
>>> readout_value("O=S(=O)(NCCNc1nccc(-c2c(-c3ccc(F)c(O)c3)nc3sccn23)n1)c1ccc(Cl)cc1")
-1.12
>>> readout_value("COc1ccccc1S(=O)(=O)Nc1ccc2c3c(cc(CCC(=O)NCCCCNc4cccc5c4C(=O)N(C4CCC(=O)NC4=O)C5=O)cc13)C(=O)N2C (stereo not given)")
43.9

Please examine the following record next.
c1cc(OCCN2CCCCCC2)ccc1CNc1ccc2nc(CCC3CCCCC3)[nH]c2c1 yielded growth of 83.9
